Biological target: T1, O9-bS
T1 chain: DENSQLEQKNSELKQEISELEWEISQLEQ
Test: two-hybrid library CCNG1;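 note: natural log of median RNA to DNA barcode read ratio; higher means stronger binding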

binder | interaction score
DEISQLEQKISELKQENSELEWENSQLEQ [O3-bS] | -1.14
DENSQLEQEISELEQKNSELKWEISQLEQ [O5-bS] | -0.729
DEISQLEQENSELEQKISELKWENSQLEQ [O15-bS] | -0.877
DKISQLKQKNSELKQKISELKWENSQLEQ [O7-bS] | -1.07
